Record form. Attribute: GI50. Fill in for each entry.
system: UACC-257 melanoma; assay: NCI tumour cell line growth inhibition, 48 h

Note to self: GI50 of NC(=O)c1cc([N+](=O)[O-])c(Cl)c([N+](=O)[O-])c1Cl with UACC-257 melanoma was 1.13 µM

Note to self: GI50 of C[C@]12CC[C@H]3[C@@H](CC=C4C[C@@H](N5CCCC5)CC[C@@]43C)[C@@H]1C/C(=C\c1cccc(OCCN3CCOCC3)c1)[C@@H]2O with UACC-257 melanoma was 2.55 µM

Note to self: GI50 of COc1cc(/C=C/C(=O)/C=C/c2ccc(-n3ccnc3C)cc2)ccc1O with UACC-257 melanoma was 3.33 µM

Note to self: GI50 of CC1=C(SCCC(=O)OC(C[Se]C2=C(C)C(=O)c3ccccc3C2=O)C(=O)NCCCCCC(=O)OCc2ccccc2)C(=O)c2ccccc2C1=O (configuration not stated) with UACC-257 melanoma was 3.46 µM

Note to self: GI50 of Cc1ccc(/C=N/Nc2nc(Nc3ccccc3)nc(-n3nc(C)cc3C)n2)cc1 with UACC-257 melanoma was 9.04 µM

Note to self: GI50 of O=C([CH-]C(=O)c1ccccc1)c1ccccc1.[CH-]1CCCCC1.[CH-]1CCCCC1.[CH-]1CCCCC1.[Sn+4] with UACC-257 melanoma was 4.29 µM

Note to self: GI50 of COc1cc(Nc2ncc(-c3ccccc3)o2)cc(OC)c1 with UACC-257 melanoma was > 25 µM

Note to self: GI50 of O=C(Nc1cccc(O)c1)c1ccc(NC2=C(Cl)C(=O)N(Cc3ccc(Cl)cc3Cl)C2=O)cc1 with UACC-257 melanoma was 7.96 µM

Note to self: GI50 of Cc1cc2c(cc1Cl)S/C(=C/C(=O)O)C(Nc1ccc3ncsc3c1)=NS2(=O)=O with UACC-257 melanoma was > 27.2 µM

Note to self: GI50 of CC1(C)CNc2cc(NC(=O)c3cccnc3NCc3ccncc3)ccc21 with UACC-257 melanoma was 28.8 µM

Note to self: GI50 of COc1ccc2c(c1)c(-c1nc(-c3c[nH]c4ccncc34)cs1)cn2C with UACC-257 melanoma was 1.68 µM

Note to self: GI50 of CCC(C)[C@H](NC(=O)Nc1cc(C(F)(F)F)cc(C(F)(F)F)c1)C(=O)N[C@@H](Cc1cn(C)cn1)C(=O)OC (some centres not stated) with UACC-257 melanoma was 1.3 µM

Note to self: GI50 of NCCCC[C@@H]1NC(=O)[C@H](CC(=O)O)NC(=O)CNC(=O)[C@H](CCCN=C(N)N)NC(=O)[C@@H](N)CSSC[C@@H](C(=O)O)NC(=O)[C@H](CC(=O)O)NC(=O)[C@@H]2CCCN2C(=O)CNC1=O with UACC-257 melanoma was > 100 µM

Note to self: GI50 of C[CH2][Ge]([CH2]C)([CH2]C)[O]C(=O)C(OC(C)=O)c1ccccc1 (configuration not stated) with UACC-257 melanoma was > 100 µM

Note to self: GI50 of CC1=C2[C@@H](CC1)[C@]1(C)O[C@@](C(C)C)(C[C@H]1OC(=O)CO)[C@H]2OC(=O)C1CC1c1ccccc1 (some centres not stated) with UACC-257 melanoma was 17.3 µM

Note to self: GI50 of COc1cccc(CC(C)=C(c2ccc(OCCN3CCCCC3)cc2)c2ccc(OCCN3CCCCC3)cc2)c1 with UACC-257 melanoma was 2.14 µM

Note to self: GI50 of COc1ccc2c(c1OC)CO[C@@H]2[C@H]1c2c(cc3c(c2OC)OCO3)CCN1S(=O)(=O)c1cn(C)cn1 with UACC-257 melanoma was 9.43 µM

###

test system: IGROV1 ovarian; experiment: NCI tumour cell line growth inhibition, 48 h; in the data active means GI50 below about 0.43 µM; inactive means the rest
Result category, one only: true (1) (active), false (0) (inactive)

Incoming: Status in this test for CC1=C(c2ccccc2)C(O)(c2ccccc2)C(C)C1=O (stereo not given) ?
Outgoing: false (0)

Incoming: Status in this test for COC(=O)c1ccc(CN2C(=O)C(Cl)=C(Nc3cccc(Cl)c3C)C2=O)cc1 ?
Outgoing: false (0)

Incoming: Status in this test for COc1ccc2c(c1)nc(C(=O)c1ccco1)c(C(F)(F)F)[n+]2[O-] ?
Outgoing: false (0)

Incoming: Status in this test for NC(=O)c1cc([N+](=O)[O-])c(Cl)c([N+](=O)[O-])c1Cl ?
Outgoing: false (0)

Incoming: Status in this test for CCC(C)Nc1ccc(N)cc1 (stereo not given) ?
Outgoing: false (0)

Incoming: Status in this test for COc1ccc2c(c1OC)CO[C@@H]2[C@H]1c2c(cc3c(c2OC)OCO3)CCN1S(=O)(=O)c1cn(C)cn1 ?
Outgoing: false (0)

Incoming: Status in this test for COCc1c(-c2cc3cc(C)cc(OC)c3s2)c2c(N)ncnn2c1CN1CCNC(=O)C1 ?
Outgoing: false (0)

Incoming: Status in this test for Cc1cc2c(cc1Cl)S/C(=C/C(=O)O)C(Nc1ccc3ncsc3c1)=NS2(=O)=O ?
Outgoing: false (0)

Incoming: Status in this test for COc1ccc(/C(COc2ccc3oc(-c4ccccc4)cc(=O)c3c2)=N\O)cc1 ?
Outgoing: true (1)

Incoming: Status in this test for Nc1nc([Se])c2ncn(C3OC(CO)C(O)C3O)c2n1 (stereo not given) ?
Outgoing: false (0)

###

test system: MALME-3M melanoma; assay: NCI tumour cell line growth inhibition, 48 h
Entry flag: Met if TGI reaches 4 µM; Not met if it does not.

Incoming: Is TGI for COC12C=C/C(=C(/C(=O)OCc3ccccn3)C(=O)CCCCCCCCC3(OC)C=C/C(=C(/C(=O)OCc4ccccn4)C(=O)CCCCCCCC1)O3)O2 at or above 4 µM?
Outgoing: Not met

Incoming: Is TGI for COc1cc2c(c(O)c1OC)CC1CCC(=O)N1C2c1cccc2ccccc12 (configuration not stated) at or above 4 µM?
Outgoing: Met

Incoming: Is TGI for Cc1n[nH]c(=O)n1/N=C\c1ccccc1 at or above 4 µM?
Outgoing: Met

Incoming: Is TGI for CC(=O)Nc1c(Nc2ccccc2)[nH]c(C)nc1=S at or above 4 µM?
Outgoing: Met

Incoming: Is TGI for C=C1C(=O)O[C@@H]2[C@H](O)[C@@H](C)[C@@H]3C=CC(=O)[C@@]3(C)[C@@H](OC(=O)/C(C)=C/C)[C@H]12 at or above 4 µM?
Outgoing: Not met

Incoming: Is TGI for N#C/C(=C/c1ccc2c(c1)OCO2)C(=O)c1ccccc1 at or above 4 µM?
Outgoing: Met

Incoming: Is TGI for CCN(CC)CCCNc1cc(OC)cc2nc3cc(Cl)ccc3nc12 at or above 4 µM?
Outgoing: Not met

Incoming: Is TGI for CCC(C)[C@H](NC(=O)Nc1cc(C(F)(F)F)cc(C(F)(F)F)c1)C(=O)N[C@@H](Cc1cn(C)cn1)C(=O)OC (some centres not stated) at or above 4 µM?
Outgoing: Not met

Incoming: Is TGI for CN(c1ccc(C(=O)c2ccc(N(C)S(C)(=O)=O)cc2)cc1)S(C)(=O)=O at or above 4 µM?
Outgoing: Met

Incoming: Is TGI for O=C(c1ccccc1)C1S(=O)(=O)OCCOS1(=O)=O at or above 4 µM?
Outgoing: Met

Incoming: Is TGI for C=C1CC(Cn2ccc(=O)[nH]c2=O)(c2ccc(Cl)cc2)OC1=O (configuration not stated) at or above 4 µM?
Outgoing: Met

Incoming: Is TGI for CCOC(=O)Oc1cc2c(c(OC)c1OC)-c1ccc(OC)c(=O)cc1C(NC(C)=O)CC2 (configuration not stated) at or above 4 µM?
Outgoing: Met

Incoming: Is TGI for Cc1sc2c(c1C)/C(=N\O)c1cccn1-2 at or above 4 µM?
Outgoing: Met

Incoming: Is TGI for CCOC(=O)c1nc2ccc(C(F)(F)F)cc2nc1Nc1ccc(Cl)c(Cl)c1 at or above 4 µM?
Outgoing: Met

Incoming: Is TGI for COc1c2c(c3ccccc3c1O)C1C=CC2C1 (configuration not stated) at or above 4 µM?
Outgoing: Met

Incoming: Is TGI for O=C(Nc1cccc([N+](=O)[O-])c1)c1n[nH]n(-c2cccc([N+](=O)[O-])c2)c1=O at or above 4 µM?
Outgoing: Met

Incoming: Is TGI for C[C@]12CC[C@H]3[C@@H](CC=C4C[C@@H](N5CCCC5)CC[C@@]43C)[C@@H]1C/C(=C\c1cccc(OCCN3CCOCC3)c1)[C@@H]2O at or above 4 µM?
Outgoing: Met

Incoming: Is TGI for O=C1N2Cc3c4ccc5c3CN3C(=O)N6Cc7c(ccc(c7CN1C6(c1ccccc1)C23c1ccccc1)OCCOCCNCCOCCO4)OCCOCCNCCOCCO5 (configuration not stated) at or above 4 µM?
Outgoing: Met

Incoming: Is TGI for O=C(N/N=C\c1ccc(N(CCCl)CCCl)cc1[N+](=O)[O-])c1cccnc1 at or above 4 µM?
Outgoing: Met

Incoming: Is TGI for COc1ncc(Nc2ncc([C@@H](C)N3CCN(S(C)(=O)=O)CC3)cc2-c2nc(C)nc(N)n2)cc1F at or above 4 µM?
Outgoing: Met

Incoming: Is TGI for CNC(=O)c1c(NC(=O)c2ccc(C(C)(C)C)cc2)sc2c(CN(C)C)c(O)ccc12 at or above 4 µM?
Outgoing: Not met

Incoming: Is TGI for C[N+](C)(C)CC(=O)N/N=C(/C(=O)Nc1ccc(Br)cc1)C1C(=O)NC(=O)NC1=O at or above 4 µM?
Outgoing: Met

Incoming: Is TGI for ClC/C=C/COC1CCCCO1 (configuration not stated) at or above 4 µM?
Outgoing: Met

Incoming: Is TGI for NC(=O)c1cc([N+](=O)[O-])c(Cl)c([N+](=O)[O-])c1Cl at or above 4 µM?
Outgoing: Met

Incoming: Is TGI for COC(=O)N/N=C(\C)c1c(O)cc(C)oc1=O at or above 4 µM?
Outgoing: Met

Incoming: Is TGI for O=c1[nH]c2ccccc2nc1/C=C(\O)c1ccccc1O at or above 4 µM?
Outgoing: Met

Incoming: Is TGI for CC1C(C)N(C(=O)CCl)c2ccccc2N1C(=O)CCl (configuration not stated) at or above 4 µM?
Outgoing: Not met

Incoming: Is TGI for C[CH2][Ge]([CH2]C)([CH2]C)[O]C(=O)C(OC(C)=O)c1ccccc1 (configuration not stated) at or above 4 µM?
Outgoing: Met

Incoming: Is TGI for CCOC(=O)NC(OC)(C(F)(F)F)C(F)(F)F at or above 4 µM?
Outgoing: Met

Incoming: Is TGI for CC1CC/C(=C\c2ccc(F)cc2)C(=O)/C1=C/c1ccc(F)cc1 (configuration not stated) at or above 4 µM?
Outgoing: Met

Incoming: Is TGI for COc1cc(/C=C/C(=O)/C=C/c2ccc(-n3ccnc3C)cc2)ccc1O at or above 4 µM?
Outgoing: Met

Incoming: Is TGI for CCOC(=O)C(NC(=O)c1ccccc1)(N1CCN(c2cc3c(cc2F)c(=O)c(C(=O)O)cn3CC)CC1)C(F)(F)F (configuration not stated) at or above 4 µM?
Outgoing: Met

Incoming: Is TGI for CC(=O)Oc1ccc2c(c1)CC[C@@H]1C2[C@@H](O[N+](=O)[O-])C[C@@]2(C)C1CC[C@@H]2O[N+](=O)[O-] (some centres not stated) at or above 4 µM?
Outgoing: Met

Incoming: Is TGI for CCOP(=O)(OCC)C1CCCOC1=O (configuration not stated) at or above 4 µM?
Outgoing: Met

Incoming: Is TGI for COc1ccc2c(c1OC)CO[C@@H]2[C@H]1c2c(cc3c(c2OC)OCO3)CCN1S(=O)(=O)c1cn(C)cn1 at or above 4 µM?
Outgoing: Met

Incoming: Is TGI for CN(C)c1ccc2oc(=O)c3ccccc3c2c1 at or above 4 µM?
Outgoing: Met
